Entries and their pEC50
Target: mAChR M4 (UniProt P08173)
Construct: hM1 and hM4 cDNAs were purchased from Missouri S&T cDNA Resource
Test: mAChR M4 cell-based functional assay (calcium mobilization, Fluo-4, FDSS)
Settings: positive allosteric modulator activity, EC20 acetylcholine response, CHO-K1 cells
readout name: pEC50

>>> measurement("CCC(=O)Nc1nn(C)c2c1sc1nc(C)cc(C)c12")
5.54
>>> measurement("Cc1cc(C)c2c(n1)sc1c(NC(=O)C3CCCCC3)nn(C)c12")
"<5.00"
>>> measurement("COc1ccc(CNc2n[nH]c3c2sc2nc(C)c(Cl)c(C)c23)cc1")
"<5.00"
>>> measurement("Cc1cc(C)c2c(n1)sc1c(NC(=O)c3ccccc3)nn(C)c12")
"<5.00"
>>> measurement("Cc1nc2sc3c(Nc4ccncc4)nn(C)c3c2c(C)c1Cl")
"<5.00"

====

Biological target: mAChR M4 (UniProt P08173)
Construct: hM1 and hM4 cDNAs were purchased from Missouri S&T cDNA Resource
Experiment: mAChR M4 cell-based functional assay (calcium mobilization, Fluo-4, FDSS)
Settings: % ACh maximum at 30 μM
readout name: Emax (%)*

>>> measurement("COc1ccc(CNc2nn(C)c3c2sc2nc(C)c(Cl)c(C)c23)cc1")
51
>>> measurement("Cc1ccc2c(n1)sc1c(NCc3ccc(Cl)cc3)n[nH]c12")
37
>>> measurement("Cc1cc(C)c2c(n1)sc1c(NCc3ccccc3)nn(C)c12")
75
>>> measurement("Cc1ccnc(Nc2nn(C)c3c2sc2nc(C)c(Cl)c(C)c23)n1")
36
>>> measurement("Cc1cc(C)cc(CNc2nn(C)c3c2sc2nc(C)cc(C)c23)c1")
37
>>> measurement("Cc1cc(C)c2c(n1)sc1c(NCc3ccco3)n[nH]c12")
80
>>> measurement("COc1cc(OC)cc(C(C)Nc2nn(C)c3c2sc2nc(C)cc(C)c23)c1 (stereo not drawn)")
38
>>> measurement("Cc1ccc2c(n1)sc1c(NCc3ccc(Cl)cc3)nn(C)c12")
56
>>> measurement("Cc1ccc2c(n1)sc1c(NCC3CC3)n[nH]c12")
64
>>> measurement("Cc1cc(C)c2c(n1)sc1c(NCc3ccc(C#N)c(F)c3)nn(C)c12")
52
>>> measurement("Cc1cc(C)c2c(n1)sc1c(NCc3cccs3)n[nH]c12")
78
>>> measurement("Cc1cc(C)c2c(n1)sc1c(NCC(C)(C)C)nn(C)c12")
61
>>> measurement("Cc1ccc2c(n1)sc1c(NCC3CC3)nn(C)c12")
73
>>> measurement("Cc1cc(C)c2c(n1)sc1c(NC3CCOC3)nn(CCO)c12 (stereo not drawn)")
69
>>> measurement("Cc1cc(C)c2c(n1)sc1c(NCc3cc4ccccc4n3C)nn(C)c12")
51
>>> measurement("Cc1cc(C)c2c(n1)sc1c(NCC3CC3)nn(C)c12")
73
>>> measurement("Cc1ccc2c(n1)sc1c(NCc3ccncc3)nn(C)c12")
80
>>> measurement("Cc1cc(C)c2c(n1)sc1c(N)nn(C)c12")
49
>>> measurement("Cc1cc(C)c2c(n1)sc1c(N)n[nH]c12")
27
>>> measurement("Cc1cc(C)c2c(n1)sc1c(NC3CCCSC3)nn(CCO)c12 (stereo not drawn)")
62
>>> measurement("COc1ccc(CNc2n[nH]c3c2sc2nc(C)ccc23)cc1")
59
>>> measurement("Cc1ccnc2sc3c(NCC4CC4)nn(C)c3c12")
77
>>> measurement("Cc1cc(C)c2c(n1)sc1c(NC3CCCC3)n[nH]c12")
55
>>> measurement("Cc1ccnc2sc3c(NCc4ccncc4)nn(C)c3c12")
74
>>> measurement("Cc1ccc2c(n1)sc1c(NC(C)C)n[nH]c12")
37
>>> measurement("Cc1cc(C)c2c(n1)sc1c(NCc3cccs3)nn(C)c12")
81
>>> measurement("Cc1cc(C)c2c(n1)sc1c(NC3CCSC3)nn(CCO)c12 (stereo not drawn)")
68
>>> measurement("Cc1cc(C)c2c(n1)sc1c(NC(=O)C3CC3)nn(C)c12")
44
>>> measurement("Cc1ccc2c(n1)sc1c(NCc3ccco3)nn(C)c12")
64
>>> measurement("Cc1cc(C)c2c(n1)sc1c(NC3CCOCC3)nn(C)c12")
78
>>> measurement("Cc1cc(C)c2c(n1)sc1c(NCc3cccnc3)nn(C)c12")
68
>>> measurement("Cc1cc(C)c2c(n1)sc1c(NC3CCSCC3)n[nH]c12")
38
>>> measurement("Cc1nc2sc3c(NCc4ccccc4)nn(C)c3c2c(C)c1Cl")
39
>>> measurement("Cc1cc(C)c2c(n1)sc1c(NCc3ccc(S(C)(=O)=O)c(F)c3)nn(C)c12")
74
>>> measurement("Cc1ccc2c(n1)sc1c(NC(C)C)nn(C)c12")
62
>>> measurement("Cc1cc(C)c2c(n1)sc1c(NCc3ccccn3)nn(C)c12")
55
>>> measurement("Cc1cc(C)c2c(n1)sc1c(NCC3CC3)n[nH]c12")
68
>>> measurement("Cc1ccc2c(n1)sc1c(NCCC(C)C)nn(C)c12")
71
>>> measurement("Cc1cc(C)c2c(n1)sc1c(NCC3CCCO3)nn(C)c12 (stereo not drawn)")
52

====

Biological target: mAChR M4 (UniProt P08173)
Construct: hM1 and hM4 cDNAs were purchased from Missouri S&T cDNA Resource
Experiment: mAChR M4 cell-based functional assay (calcium mobilization, Fluo-4, FDSS)
Details: positive allosteric modulator activity, EC20 acetylcholine response, CHO-K1 cells
readout name: pEC50

>>> measurement("COc1ccc(CNc2nn(C)c3c2sc2nc(C)cc(C)c23)c(OC)c1 [Compound 61]")
6.35
>>> measurement("Cc1cc(C)c2c(n1)sc1c(NC3CCSCC3)nn(CCO)c12 [Compound 114]")
6.43
>>> measurement("Cc1cc(C)c2c(n1)sc1c(NC3CCOCC3)nn(C)c12 [Compound 65]")
6.00
>>> measurement("Cc1cc(C)c2c(n1)sc1c(NCc3cccs3)n[nH]c12 [Compound 36]")
6.20
>>> measurement("Cc1ccc2c(n1)sc1c(NCC3CC3)nn(C)c12 [Compound 51]")
5.89
>>> measurement("Cc1cc(C)c2c(n1)sc1c(NCC3CC3)n[nH]c12 [Compound 7]")
5.90

====

Biological target: mAChR M4 (UniProt P08173)
Construct: hM1 and hM4 cDNAs were purchased from Missouri S&T cDNA Resource
Assay: mAChR M4 cell-based functional assay (calcium mobilization, Fluo-4, FDSS)
Settings: positive allosteric modulator activity, EC20 acetylcholine response, CHO-K1 cells
readout name: pEC50

>>> measurement("Cc1cc(C)c2c(n1)sc1c(NCC(C)C)n[nH]c12")
5.43
>>> measurement("Cc1cc(C)c2c(n1)sc1c(NC(=O)C3CC3)n[nH]c12")
5.42
>>> measurement("Cc1cc(C)c2c(n1)sc1c(NC3CCCC3)n[nH]c12")
5.76
>>> measurement("Cc1ccc2c(n1)sc1c(NCCC(C)C)nn(C)c12")
6.06
>>> measurement("Cc1cc(C)c2c(n1)sc1c(NC3CCOC3)nn(CCO)c12 (centres unmarked)")
6.09

====

Biological target: mAChR M4 (UniProt P08173)
Construct: hM1 and hM4 cDNAs were purchased from Missouri S&T cDNA Resource
Sequence (P08173 1-479): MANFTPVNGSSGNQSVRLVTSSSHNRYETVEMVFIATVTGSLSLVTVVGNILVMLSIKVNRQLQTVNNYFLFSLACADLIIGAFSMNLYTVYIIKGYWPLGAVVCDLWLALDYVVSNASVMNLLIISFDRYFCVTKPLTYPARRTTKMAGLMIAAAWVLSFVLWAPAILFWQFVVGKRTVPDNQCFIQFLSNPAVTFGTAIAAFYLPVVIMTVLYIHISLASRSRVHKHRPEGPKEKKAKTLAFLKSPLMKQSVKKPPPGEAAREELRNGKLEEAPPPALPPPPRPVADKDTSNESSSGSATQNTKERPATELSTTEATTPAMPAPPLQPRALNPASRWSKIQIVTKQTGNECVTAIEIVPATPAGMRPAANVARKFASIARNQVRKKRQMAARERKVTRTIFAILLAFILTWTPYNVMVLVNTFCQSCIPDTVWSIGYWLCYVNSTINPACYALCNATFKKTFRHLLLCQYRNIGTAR
Assay: mAChR M4 cell-based functional assay (calcium mobilization, Fluo-4, FDSS)
Details: positive allosteric modulator activity, EC20 acetylcholine response, CHO-K1 cells
readout name: pEC50

>>> measurement("Cc1nc2sc3c(NCc4ccco4)nn(C)c3c2c(C)c1Cl [Compound 25]")
6.66
>>> measurement("Cc1cc(C)c2c(n1)sc1c(NCc3cc(C#N)ccc3F)nn(C)c12 [Compound 91]")
6.66
>>> measurement("Cc1cc(C)c2c(n1)sc1c(NCC(C)(C)C)nn(C)c12 [Compound 104]")
6.00
>>> measurement("Cc1cc(C)c2c(n1)sc1c(NCc3ccc(S(C)(=O)=O)cc3)nn(C)c12 [Compound 75]")
6.60
>>> measurement("Cc1cc(C)c2c(n1)sc1c(NCC3CC3)nn(C)c12 [Compound 30]")
6.80
>>> measurement("Cc1cc(C)c2c(n1)sc1c(NCc3ccccc3F)nn(C)c12 [Compound 57]")
6.72
>>> measurement("Cc1cc(C)c2c(n1)sc1c(NCC3CC3)nn(C(=O)OC(C)(C)C)c12 [Compound 8]")
5.62
>>> measurement("Cc1cc(C)c2c(n1)sc1c(NCc3ccc(Cl)o3)nn(C)c12 [Compound 79]")
6.51
>>> measurement("Cc1cc(C)c2c(n1)sc1c(NCc3sc(C)nc3C)nn(C)c12 [Compound 99]")
7.03
>>> measurement("Cc1cc(C)c2c(n1)sc1c(NC3CCCC3)nn(C)c12 [Compound 64]")
6.85
>>> measurement("Cc1nc2sc3c(N)nn(C)c3c2c(C)c1Cl [Compound 23]")
6.07
>>> measurement("Cc1ccc2c(n1)sc1c(NCC3CC3)n[nH]c12 [Compound 43]")
5.35
>>> measurement("Cc1cc(C)c2c(n1)sc1c(NCc3ccc4c(c3)OCCO4)nn(C)c12 [Compound 87]")
6.80
>>> measurement("Cc1cc(C)c2c(n1)sc1c(NCc3ccc(S(C)(=O)=O)c(F)c3)nn(C)c12 [Compound 94]")
7.09
>>> measurement("Cc1cc(C)c2c(n1)sc1c(NCc3ccsc3)nn(C)c12 [Compound 80]")
7.21
